All figures here come from PubChem BioAssay AID2202554.

System: S. typhimurium/E. coli reverse mutation, colony counts
Assay: Bacterial reverse mutation test (aka Ames test) summary data;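 also: His-minus Salmonella and trp-minus E. coli WP2 uvrA pKM101 with or without liver S9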
Results filed as inconclusive are left out. Active and inactive are the calls of the source. No rule for the calls is given here.
Answer with one of the outcomes given here: Y = active, N = inactive

Nc1ccc([As](=O)(O)O)cc1
N

[Q] Which result was noted for this compound in the test: O=C/C=C/O
[A] N

[Q] What would you report for NC(=O)N=NC(N)=O ?
[A] Y

[Q] Further, for O.O=C([O-])c1ccccn1.O=C([O-])c1ccccn1.O=C([O-])c1ccccn1.[Cr+3] ?
[A] N

[Q] What do you get for CN1CSC(=S)N(C)C1 ?
[A] Y

[Q] Now try NCCNCCO .
[A] Y

[Q] Also BrCC(Br)C1CCC(Br)C(Br)C1 (configuration not stated) ?
[A] N

[Q] Same for Cc1ccc(N)cc1C
[A] Y

[Q] Repeat with CC(N)CN (configuration not stated)
[A] N

[Q] Try the compound C=C(Cl)CCl
[A] Y

[Q] Similarly, CC(CO)(CO)[N+](=O)[O-] ?
[A] N

---

Tested on: S. typhimurium/E. coli reverse mutation, colony counts
Test: Bacterial reverse mutation test (aka Ames test) summary data;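 also: His-minus Salmonella and trp-minus E. coli WP2 uvrA pKM101 with or without liver S9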
Inconclusive results are not listed. Activity calls are given as the source filed them. How the calls were made is not given here.
measuredEndpoint: outcome

Brc1cccc(-c2ccccc2)c1
inactive; negative
ClCC1CO1 (stereo not given)
active; positive
O=C(O)CBr
active; positive
COC(=O)[C@H]1[C@H]2C[C@@H]3c4[nH]c5cc(OC)ccc5c4CCN3C[C@H]2C[C@@H](OC(=O)/C=C/c2cc(OC)c(OC)c(OC)c2)[C@@H]1OC
inactive; negative
CC(C)CO
inactive; negative
OCCCCl
active; positive

[Q] What value of outcome has been recorded for this entry: C=CCc1ccc(OC)c(OC)c1
[A] inactive; negative

---

System: S. typhimurium/E. coli reverse mutation, colony counts
Assay: Bacterial reverse mutation test (aka Ames test) summary data;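 also: His-minus Salmonella and trp-minus E. coli WP2 uvrA pKM101 with or without liver S9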
Records with an inconclusive call do not appear. The source made the active and inactive calls. No rule for the calls is given here.
Select the correct class. Options are true (1) (active), false (0) (inactive) and nothing else.

See these solved cases before continuing.
Cc1ccc(N)c([N+](=O)[O-])c1
true (1)
Nc1ccc(-c2ccc(N)c(Cl)c2)cc1Cl
true (1)
c1ccc(SCCSc2ccccc2)cc1
false (0)
CCCCCCC=O
false (0)

[Q] // outcome(item) with item = O=c1ccc(O)n[nH]1
[A] true (1)

[Q] Follow-up entry: NC1NC=CS1 (centres undefined)
[A] true (1)

[Q] Also CCCCOc1ccc(C=Nc2ccc(CC)cc2)cc1 , if possible.
[A] true (1)

---

System: S. typhimurium/E. coli reverse mutation, colony counts
Experiment: Bacterial reverse mutation test (aka Ames test) summary data;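 also: His-minus Salmonella and trp-minus E. coli WP2 uvrA pKM101 with or without liver S9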
Records with an inconclusive call do not appear. Calls of active or inactive are those of the source. The rule behind the calls is not given here.
A correct response names exactly one class from active, inactive

Example results:
Nc1ncc([N+](=O)[O-])s1
active
Cc1ccc(N=C=O)cc1N=C=O
active
CC(O)COC(C)(C)C (stereo not given)
active
CCC[N+](CCC)(CCC)CCC
active

[Q] What did the test return for Clc1ccc2ccccc2c1 ?
[A] inactive

[Q] Now consider O=[N+]([O-])c1c(Cl)c(Cl)cc(Cl)c1Cl and answer again.
[A] active

[Q] Try OCc1ccco1 next.
[A] inactive

[Q] Please give the result for Cc1ccc(N(C)C)cc1 too.
[A] inactive

[Q] Input CCN(CC)CCO
[A] inactive

[Q] Further, for CC(O)CNCC(C)O (stereo not given) ?
[A] inactive

[Q] Also check Cc1ccc2nc(-c3ccc(N)cc3)sc2c1S(=O)(=O)O
[A] active

[Q] Here is the next compound: CCCC(=O)c1cc(O)c(O)cc1O
[A] active

[Q] Item: Cc1ccc(Cl)cc1
[A] inactive

[Q] Can you check COP(=O)(OC)C(O)C(Cl)(Cl)Cl (stereo not given) next?
[A] active

[Q] Input O=Nc1ccc(NO)cc1
[A] active

[Q] What about CC(=O)OCc1ccccc1 ?
[A] inactive

[Q] What do you have for Cc1cc(C)c(C)c(C)c1 ?
[A] inactive

[Q] // next record CCC(O)CN (stereo not given)
[A] inactive
